Cited source for all entries: patent US5852016A

target: glycine site of the NMDA receptor (Rattus norvegicus, UniProt P35439); construct: displace a selective glycine site radioligand from rat brain membranes; test: Binding affinity for the glycine site of the NMDA receptor (test (a)); details: displacement of selective glycine site radioligand ([3H]-L-689,560) from rat brain membranes
pIC50: −log10 of the molar value.

| Structure smiles string | pIC50 |
| --- | --- |
| CCc1c(Cl)cc2[nH]c(=O)c(=O)[nH]c2c1N(CCO)S(C)(=O)=O | > 7.30 |
| CCS(=O)(=O)Nc1c(Cl)c(Cl)cc2[nH]c(=O)c(=O)[nH]c12 | > 7.30 |
| CS(=O)(=O)N(CCCO)c1c(Cl)c(Cl)cc2[nH]c(=O)c(=O)[nH]c12 | > 7.30 |
